# assay name: Confirmation screen for delayed death inhibitors of the malarial parasite plastid, 96 hour incubation; further: nearly all actives have a fitted effect of over 60% in size
# measurement context: P. falciparum luciferase growth in erythrocytes; series mostly up to 28.7 µM
Hit rate of the full screen: of about 2,300 compounds, about 1,400 (61%) were called active. Another 29% or so got no clear call; they are omitted. The call rests on the fitted dose curve; in most records, active means well fitted inhibition curve with a large enough effect; inconclusive means small, poorly fitted or top-dose-only effect, or effect the other way; inactive means no such curve, though single readings can be large or run the other way. So high a share suggests a set chosen from earlier hits. The list shows a part of the results.
Can you answer with just one of these options? class 1 (active), class 0 (inactive)

CC(C)N(C(=O)CSc1nnc(-c2ccc3c(c2)OCO3)n1C)C(C)C	class 1
O=S(=O)(c1ccc(SCCO)nc1)N1CCOCC1	class 0
Cc1ccsc1/C=N/NC(=O)c1nnn(-c2nonc2N)c1-c1ccc2c(c1)OCO2	class 1

Problem: Name the outcome recorded for CS(=O)(=O)Nc1ccc(C2=NN(C(=O)c3ccco3)C(c3ccc(F)cc3)C2)cc1 (configuration not stated) in the assay.
Solution: class 1

Problem: Name the outcome recorded for CCCc1cc(NCc2ccccn2)n2nc(C)c(-c3ccccc3)c2n1 in the assay.
Solution: class 1
